src = patent US11613547B2

Biological target: mouse mu opioid receptor (mMOR) (Mus musculus)
Construct: expressed in transfected cells; host or cells: HEK-293T, transient (PEI), with BRET sensor cDNAs
Assay: cell-based
Format: cell-based
Details: read-out: Arrestin EC50 mMOR
Measurement Label: pEC50
Give only the number. pEC50 is defined as minus log10 of concentration in molar units.

O=C(N[C@@H]1C=CC2[C@H]3Cc4ccc(O)c5c4[C@@]2(CCN3CC2CC2)[C@H]1O5)c1cccc(I)c1 (some centres unmarked) [MP1104, reference compound] :: 9.55

Now consider the entry below.
Looking up O=C(N[C@@H]1CC[C@@]2(O)[C@H]3Cc4ccc(O)c5c4[C@@]2(CCN3CC2CC2)[C@H]1O5)c1cccc(I)c1 [IBNtxA, reference compound] , I found its pEC50 recorded as 4.95

###

Target: hMOR (Homo sapiens)
Construct: expressed in transfected cells; host or cells: HEK 293T (ATCC CRL-11268), transient
Sequence (P35372 whole entry): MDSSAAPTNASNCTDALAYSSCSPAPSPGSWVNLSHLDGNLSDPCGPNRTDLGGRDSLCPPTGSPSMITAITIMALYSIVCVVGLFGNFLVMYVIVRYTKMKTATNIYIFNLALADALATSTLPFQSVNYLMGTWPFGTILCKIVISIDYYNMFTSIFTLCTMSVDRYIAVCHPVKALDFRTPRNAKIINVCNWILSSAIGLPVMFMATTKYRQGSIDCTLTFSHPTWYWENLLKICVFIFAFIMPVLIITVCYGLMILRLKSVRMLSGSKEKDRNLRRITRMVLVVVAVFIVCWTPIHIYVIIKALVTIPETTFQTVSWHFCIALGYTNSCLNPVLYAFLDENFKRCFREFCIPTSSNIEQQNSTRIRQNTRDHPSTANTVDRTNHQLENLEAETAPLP
Assay: cell-based
Assay type: cell-based
Measurement Label: Bias factor toward G protein, hMOR

Please review the entries below; each comes with its answer.
O=C(N[C@@H]1CC[C@@]2(O)C3Cc4ccc(O)cc4[C@@]2(CCN3CC2CC2)C1)c1cccc(I)c1 :: 4
O=C(N[C@@H]1CC[C@@]2(O)[C@H]3Cc4ccc(O)c5c4[C@@]2(CCN3CC2CC2)[C@H]1O5)c1cccc(I)c1 [IBNtxA, reference compound] :: 23
CO[C@@]12CC[C@@H](NC(=O)c3cccc(I)c3)C3Oc4c(O)ccc5c4[C@@]31CCN(CC1CC1)C2C5 (stereo partly shown) :: 11

Reported Bias factor toward G protein, hMOR of O=C(N[C@@H]1CCC2C3Cc4ccc(O)c5c4C2(CCN3CC2CC2)C1O5)c1cccc(I)c1 (stereo partly shown) : 31

###

Molecular target: mouse mu opioid receptor (mMOR) (Mus musculus, UniProt P42866)
Construct: expressed in transfected cells; host or cells: HEK-293T, transient (PEI), with BRET sensor cDNAs
Sequence (P42866 whole entry): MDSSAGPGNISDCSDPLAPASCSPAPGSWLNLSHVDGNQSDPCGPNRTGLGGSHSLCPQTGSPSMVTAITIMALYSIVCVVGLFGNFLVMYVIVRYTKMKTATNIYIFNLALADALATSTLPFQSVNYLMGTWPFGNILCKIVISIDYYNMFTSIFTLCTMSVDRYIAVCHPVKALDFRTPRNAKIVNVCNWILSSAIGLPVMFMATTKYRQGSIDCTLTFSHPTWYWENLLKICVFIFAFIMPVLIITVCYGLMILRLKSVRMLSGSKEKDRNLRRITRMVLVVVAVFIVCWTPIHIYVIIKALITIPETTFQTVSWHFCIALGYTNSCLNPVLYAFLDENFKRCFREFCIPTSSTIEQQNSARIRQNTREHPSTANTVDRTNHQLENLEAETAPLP
Assay: cell-based
Assay type: cell-based
Give rule met when the value for Gi pEC50±SEM mMOR is at least 9. Give rule not met when it is less.

Q: Reported Gi pEC50±SEM mMOR at or above 9? O=C(N[C@@H]1CC[C@@]2(O)[C@H]3Cc4ccc(O)c5c4[C@@]2(CCN3CC2CC2)[C@H]1O5)c1cccc(I)c1 [IBNtxA, reference compound]
Result: rule met

Q: Is Gi pEC50±SEM mMOR for `O=C(N[C@@H]1CC[C@@]2(O)C3Cc4ccc(O)cc4[C@@]2(CCN3CC2CC2)C1)c1cccc(I)c1` at or above 9?
Result: rule not met

Q: In plain terms: is recorded Gi pEC50±SEM mMOR at least 9 for N=C(N)NCc1cccc(C(=O)N[C@@H]2CCC3C4Cc5ccc(O)c6c5[C@@]3(CCN4CC3CC3)C2O6)c1 (some centres unmarked) ?
Result: rule not met

###

Molecular target: mouse mu opioid receptor (mMOR) (Mus musculus)
Construct: expressed in transfected cells; host or cells: HEK-293T, transient (PEI), with BRET sensor cDNAs
Experiment: cell-based
Assay type: cell-based
Settings: read-out: Gi Emax mMOR
Binary label based on Emax with cut-off 60%: below gives rule met, not below gives rule not met.

CO[C@@]12CC[C@@H](NC(=O)c3cccc(I)c3)C3Oc4c(O)ccc5c4[C@@]31CCN(CC1CC1)C2C5 (some centres unmarked) [MP1305] :: rule not met
NCc1cccc(C(=O)NC2CCC3C4Cc5ccc(O)c6c5C3(CCN4CC3CC3)C2O6)c1 (centres unmarked) [MP1207] :: rule met
O=C(N[C@@H]1CC[C@@]2(O)C3Cc4ccc(O)cc4[C@@]2(CCN3CC2CC2)C1)c1cccc(I)c1 [MP1601] :: rule met

Then this compound:
Q: I wonder whether N=C(N)NCc1cccc(C(=O)N[C@@H]2CCC3C4Cc5ccc(O)c6c5[C@@]3(CCN4CC3CC3)C2O6)c1 (some centres unmarked) [MP1208] has Emax below 60%. Can you tell?
Result: rule met
